The values you see were collected from the supplement of paper PMC6757056.

B1: library; a variant is named by its letters at N, in order (parent)
chain: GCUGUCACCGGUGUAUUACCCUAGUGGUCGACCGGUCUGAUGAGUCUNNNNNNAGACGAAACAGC

Variants of: B1
Test: normalized RNA/DNA level with ligand (relative to sTRSVctl = 100) (log10 (% of sTRSVctl)); ligand: hypoxanthine (xanthine aptamer); higher = less ribozyme self-cleavage, higher mRNA level
Settings: ligand concentration (+) RNA-Seq: 5 mM, HEK293T, reporter: mCherry (pCS4076), ligand present: yes
Can you tell me normalized RNA/DNA level with ligand (log10) for the items I'm about to list?
One number for each entry.

Some entries whose results are on file:
UCCGGA = 1.96
UCUGUU = 1.98
UAGCUU = 2
UUGGAG = 1.95
AGCCGA = 1.93

// for each variant below, give its normalized RNA/DNA level with ligand (log10)
1. UGGCAC
2. CUUUCC
3. AAGAGC
4. AAAGGC
5. ACUCAC
6. CCUAAA
7. AAUUGC
8. CUCGAG

Ans:
[2, 1.91, 1.9, 1.91, 1.99, 1.95, 1.91, 1.9]

Look at each variant and report its normalized RNA/DNA level with ligand (log10).
1. GUAACU
2. GUAUGU
3. AUAAGA
4. GUACUC
5. CUAAGU
6. GUGUGG

Ans:
1: 1.94; 2: 1.9; 3: 1.9; 4: 1.93; 5: 1.93; 6: 1.81

Please report normalized RNA/DNA level with ligand (log10) for every entry that follows.
1. AGAUCG
2. AGGCCC
3. UUGGUC

Ans:
[1.89, 1.99, 1.97]
